Origin of the recorded values: patent US10815205B2

systemUnderTest: human V2 receptor (Homo sapiens)
Sequence (P30518 whole entry): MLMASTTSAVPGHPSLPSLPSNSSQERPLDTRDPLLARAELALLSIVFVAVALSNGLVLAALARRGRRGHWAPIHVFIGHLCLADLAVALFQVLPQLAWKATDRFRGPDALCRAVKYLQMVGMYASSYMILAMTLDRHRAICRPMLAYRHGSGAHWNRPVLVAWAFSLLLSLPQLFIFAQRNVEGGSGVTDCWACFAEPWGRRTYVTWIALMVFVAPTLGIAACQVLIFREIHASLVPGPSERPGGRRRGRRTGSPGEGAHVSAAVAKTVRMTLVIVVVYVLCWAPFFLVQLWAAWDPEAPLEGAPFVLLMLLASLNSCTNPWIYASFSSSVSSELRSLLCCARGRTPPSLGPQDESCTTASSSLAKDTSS
experiment: Cellular in vitro assay for vasopressin receptor activity, V2 receptor cell line (CRE-luciferase)
testConditions: Table 1A; CHO cell line transfected with human V2 receptor; [Arg8]-vasopressin at EC50; read-out: IC50 hV2
recordedEndpoint: IC50 (nM)

Guide cases for IC50, answers given:
compound="NC(=O)c1nc(Cn2nc(-c3ccc(Cl)cc3)n(CC(=O)C(F)(F)F)c2=O)nn1-c1ccccc1OC(F)(F)F [Example 9]" recordedendpoint=IC50 unitstring=nM testresult=106
compound="CCOc1ccccc1-n1nc(Cn2nc(-c3ccc(Cl)cc3)n(C[C@H](O)C(F)(F)F)c2=O)nc1C(N)=O [Example 5]" recordedendpoint=IC50 unitstring=nM testresult=38.5
compound="NC(=O)c1nc(Cn2nc(-c3ccc(Cl)cc3)n(CC(=O)C(F)(F)F)c2=O)nn1-c1ccccc1C(F)(F)F [Example 8]" recordedendpoint=IC50 unitstring=nM testresult=33.7
compound="CS(=O)(=O)c1ccccc1-n1nc(Cn2nc(-c3ccc(Cl)cc3)n(C[C@H](O)C(F)(F)F)c2=O)nc1C(N)=O [Example 7]" recordedendpoint=IC50 unitstring=nM testresult=712

[a] CNC(=O)c1ccccc1-n1nc(Cn2nc(-c3ccc(Cl)cc3)n(C[C@H](O)C(F)(F)F)c2=O)nc1C(N)=O [Example 6]
[b] NC(=O)c1nc(Cn2nc(-c3ccc(Cl)cc3)n(C[C@H](O)C(F)(F)F)c2=O)nn1-c1ccccc1C(F)(F)F [Example 1]
[c] NC(=O)c1nc(Cn2nc(-c3ccc(Cl)cc3)n(C[C@@H](O)C(F)(F)F)c2=O)nn1-c1ccccc1C(F)(F)F [Example 2]
Ask: Hey, can you sort those compounds up there by IC50, smallest first? Write out the labels following the order that was asked for.
Result: b, c, a
